Quick list: Ki per entry.
- targetOrSystem: bCA IV (Bos taurus, UniProt Q95323)
- Sequence (Q95323 19-284): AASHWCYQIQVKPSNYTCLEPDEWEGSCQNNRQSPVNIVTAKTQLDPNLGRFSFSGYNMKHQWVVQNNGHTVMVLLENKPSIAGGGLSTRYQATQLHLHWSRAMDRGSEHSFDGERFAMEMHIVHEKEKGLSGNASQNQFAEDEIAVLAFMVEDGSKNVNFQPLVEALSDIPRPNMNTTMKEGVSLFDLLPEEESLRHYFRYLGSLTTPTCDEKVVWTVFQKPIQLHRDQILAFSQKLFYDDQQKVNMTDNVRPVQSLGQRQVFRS
- assayExplanation: CA inhibition, esterase method (4-nitrophenylacetate hydrolysis)
// note: answer is a bare numeric in µM

Observe how each entry below is paired with its result.
Dear colleague, I am looking for the recorded Ki of the following molecule: NS(=O)(=O)c1ccc(CNC(=S)NCCc2ccccc2)cc1
0.076

Lookup NS(=O)(=O)c1ccc(CNC(=S)NCCc2ccccn2)cc1
0.075

Lookup CSCCC(NC(=S)NCc1ccc(S(N)(=O)=O)cc1)C(=O)O (stereo not shown)
0.01

Lookup NS(=O)(=O)c1ccc(CNC(=S)NC(Cc2cnc[nH]2)C(=O)NCC(=O)O)cc1 (stereo not shown)
0.005

Lookup NS(=O)(=O)c1ccc(CNC(=S)NCCc2c[nH]cn2)cc1
0.052

Next:
Dear colleague, I am looking for the recorded Ki of the following molecule: NC(=O)CC(NC(=S)NCc1ccc(S(N)(=O)=O)cc1)C(=O)O (stereo not shown)
0.009

Lookup NS(=O)(=O)c1ccc(CNC(=S)N2CCCC2C(=O)NCC(=O)NCC(=O)O)cc1 (stereo not shown)
0.008

Lookup CC(O)C(NC(=S)NCc1ccc(S(N)(=O)=O)cc1)C(=O)O (stereo not shown)
0.013

Lookup CCC(C)C(NC(=S)NCc1ccc(S(N)(=O)=O)cc1)C(=O)O (stereo not shown)
0.008

Lookup NS(=O)(=O)c1ccc(CNC(=S)NC(Cc2cnc[nH]2)C(=O)NC(Cc2ccccc2)C(=O)O)cc1 (stereo not shown)
0.007

Lookup CC(C)C(NC(=S)NCc1ccc(S(N)(=O)=O)cc1)C(=O)O (stereo not shown)
0.009

Lookup NS(=O)(=O)c1ccc(CNC(=S)Nc2ccccc2C(=O)O)cc1
0.023

Lookup CC(C)CC(NC(=S)NCc1ccc(S(N)(=O)=O)cc1)C(=O)NCC(=O)O (stereo not shown)
0.011

Lookup NS(=O)(=O)c1ccc(CNC(=S)NC(CC(=O)O)C(=O)O)cc1 (stereo not shown)
0.015

Lookup NS(=O)(=O)c1ccc(CNC(=S)NCCC(=O)NC(Cc2cnc[nH]2)C(=O)O)cc1 (stereo not shown)
0.009

Lookup NS(=O)(=O)c1ccc(CNC(=S)NC(CS)C(=O)O)cc1 (stereo not shown)
0.008

Lookup NS(=O)(=O)c1ccc(CNC(=S)NC(CC(=O)O)C(=O)NC(CC(=O)O)C(=O)NC(CC(=O)O)C(=O)NC(CC(=O)O)C(=O)O)cc1 (stereo not shown)
0.024

====

- targetOrSystem: bCA IV (Bos taurus, UniProt Q95323)
- assayExplanation: CA inhibition, esterase method (4-nitrophenylacetate hydrolysis)
measuredProperty: Ki

Dear colleague, I am looking for the recorded Ki of the following compound: NS(=O)(=O)c1ccc(CNC(=S)NC(Cc2cnc[nH]2)C(=O)O)cc1 (centres unmarked)
14 nM

Lookup CC(NC(=S)NCc1ccc(S(N)(=O)=O)cc1)C(=O)O (centres unmarked)
29 nM

Lookup NS(=O)(=O)c1ccc(CNC(=S)NC(CO)C(=O)O)cc1 (centres unmarked)
9 nM

Lookup NS(=O)(=O)c1ccc(CNC(=S)NCC(=O)O)cc1
34 nM

Lookup NS(=O)(=O)c1ccc(CN=C=S)cc1
270 nM

Lookup CC(NC(=S)NCc1ccc(S(N)(=O)=O)cc1)C(=O)NC(Cc1ccccc1)C(=O)O (centres unmarked)
10 nM

Lookup NS(=O)(=O)c1ccc(CNC(=S)NCCCC(=O)O)cc1
27 nM

Lookup NC(=O)CCC(NC(=S)NCc1ccc(S(N)(=O)=O)cc1)C(=O)O (centres unmarked)
21 nM

Next:
Dear colleague, I am looking for the recorded Ki of the following compound: NS(=O)(=O)c1ccc(CNC(=S)Nc2cccc(C(=O)O)c2)cc1
29 nM

Lookup NCCCCC(NC(=S)NCc1ccc(S(N)(=O)=O)cc1)C(=O)O (centres unmarked)
34 nM

Lookup NS(=O)(=O)c1ccc(CNC(=S)NC(CCC(=O)O)C(=O)O)cc1 (centres unmarked)
23 nM

Lookup NS(=O)(=O)c1ccc(CNC(=S)Nc2ccc(C(=O)O)cc2)cc1
21 nM

Lookup NS(=O)(=O)c1ccc(CNC(=S)NC(CC(=O)O)C(=O)NC(CC(=O)O)C(=O)O)cc1 (centres unmarked)
25 nM

Lookup NS(=O)(=O)c1ccc(CNC(=S)NC(C(=O)O)c2ccccc2)cc1 (centres unmarked)
12 nM
